Target: UniProt:O43194
Sequence (O43194 1-453): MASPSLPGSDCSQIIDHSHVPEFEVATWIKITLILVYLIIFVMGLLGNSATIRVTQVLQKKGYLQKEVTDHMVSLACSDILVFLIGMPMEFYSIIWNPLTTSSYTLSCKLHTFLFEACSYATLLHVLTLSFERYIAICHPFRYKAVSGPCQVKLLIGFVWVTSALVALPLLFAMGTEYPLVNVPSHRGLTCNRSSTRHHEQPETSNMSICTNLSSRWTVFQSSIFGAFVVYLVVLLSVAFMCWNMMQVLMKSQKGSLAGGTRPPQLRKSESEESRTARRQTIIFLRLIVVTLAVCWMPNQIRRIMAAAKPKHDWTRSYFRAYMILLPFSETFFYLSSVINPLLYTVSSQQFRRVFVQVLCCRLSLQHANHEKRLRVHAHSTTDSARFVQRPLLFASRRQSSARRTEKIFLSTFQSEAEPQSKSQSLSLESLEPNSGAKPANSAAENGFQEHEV
Assay: luciferase assay system (SRE luciferase reporter gene, CV-1 cells expressing GPR39)
Type: cell-based
Parameters: expressed in transfected cells; host or cells: CV-1 fibroblast cell line (Korea Cell Line Bank), adenoviral transduction at 50 MOI
Square brackets hold non-standard residues; d marks the D form. Peptide text beside a SMILES is read from it. * marks the point of attachment. His(Trt) = N[C@@H](Cc1cn(C(c2ccccc2)(c2ccccc2)c2ccccc2)cn1)C(=O)O; His(τ-CHPh2) = N[C@@H](Cc1cn(C(c2ccccc2)c2ccccc2)cn1)C(=O)O; sY = N[C@@H](Cc1ccc(OS(=O)(=O)O)cc1)C(=O)O; dPhe(4-Me) = Cc1ccc(C[C@@H](N)C(=O)O)cc1; Octanoyl = CCCCCCCC(=O)*
Assign Criterion met to entries whose ECmax (−fold induction over basal) meets or exceeds 20 fold induction over basal; assign Criterion not met to the rest.

Examples with answers:
CCCCCCCC(=O)NCCCC[C@H](NC(=O)[C@@H](N)Cc1cn(C(c2ccccc2)(c2ccccc2)c2ccccc2)cn1)C(=O)N[C@@H](Cc1ccccc1)C(=O)N[C@@H](Cc1ccc(O)cc1)C(=O)N[C@@H](CCC(N)=O)C(=O)N[C@@H](CC(N)=O)C(=O)N[C@@H](CCC(N)=O)C(=O)N[C@@H](C)C(=O)N[C@@H](CCCNC(=N)N)C(=O)N[C@@H](Cc1ccccc1)C(N)=O [HKFY-43] (H-[His(Trt)]K(Octanoyl)FYQNQARF-NH2) ... Criterion not met
CCCCCCCC(=O)NCCCC[C@H](NC(=O)[C@H](CO)NC(=O)CNC(=O)[C@@H](N)Cc1cn(C(c2ccccc2)(c2ccccc2)c2ccccc2)cn1)C(=O)N[C@@H](Cc1ccccc1)C(=O)N[C@@H](Cc1ccc(O)cc1)C(=O)O [HKFY-53] (H-[His(Trt)]GSK(Octanoyl)FY-OH) ... Criterion not met
CCCCCCCC(=O)NCCCC[C@H](NC(=O)[C@@H](N)Cc1cn([C@H](c2ccccc2)c2ccc(C)cc2)cn1)C(=O)N[C@@H](Cc1ccccc1)C(=O)N[C@@H](Cc1ccc(O)cc1)C(=O)O ... Criterion met
CCCCCCCC(=O)NCCCC[C@H](NC(=O)[C@@H](N)Cc1cn(C(c2ccccc2)(c2ccccc2)c2ccccc2)cn1)C(=O)N[C@@H](Cc1ccc(O)cc1)C(=O)N[C@@H](Cc1ccc(O)cc1)C(=O)O [HKFY-48] (H-[His(Trt)]K(Octanoyl)YY-OH) ... Criterion not met

Switching to the query record.
query: Hi, just wondering whether CCCCCCCC(=O)NCCCC[C@H](NC(=O)[C@@H](N)Cc1cn(C(c2ccccc2)c2ccccc2)cn1)C(=O)N[C@H](Cc1ccc(C)cc1)C(=O)N[C@@H](Cc1ccc(OS(=O)(=O)O)cc1)C(=O)O [HKFY-35] (H-[His(τ-CHPh2)]K(Octanoyl)[dPhe(4-Me)][sY]-OH) shows ECmax (−fold induction over basal) of 20 fold induction over basal or higher.
result: Criterion not met
